System: U2OS
PROTOCOL: cell viability relative to DMSO; higher = less toxic
MEASUREMENT CONTEXT: 72 h; 10 nM
The entries below are paired with their reported cell viability.
Response body: numeric value in %, unit text excluded.

// below: answered compounds
COMPOUND | TEST VALUE
C=CC(=O)N1CCN(C(=O)CNc2cc(I)c(Cl)cc2O)CC1 [K-Ras(G12C)-inhibitor-12] | 96.9
CCCNC(=O)NS(=O)(=O)c1ccc(Cl)cc1 [chlorpropamide] | 103

Note: attention shifts to another entry.
# input For the compound O=S(=O)(c1ccccc1F)N1CCOc2c(N3CCNCC3)cccc21 , what cell viability is on record?
# output 96.5
